Target: p38α (Homo sapiens, UniProt Q16539, A172C/C119S/C162S/F327L)
Construct: His-tag with PreScission site (N, cleaved yes); GST (N); made in house; host or cells: E. coli BL21(DE3)
Sequence (Q16539 whole entry C119S/C162S/A172C/F327L): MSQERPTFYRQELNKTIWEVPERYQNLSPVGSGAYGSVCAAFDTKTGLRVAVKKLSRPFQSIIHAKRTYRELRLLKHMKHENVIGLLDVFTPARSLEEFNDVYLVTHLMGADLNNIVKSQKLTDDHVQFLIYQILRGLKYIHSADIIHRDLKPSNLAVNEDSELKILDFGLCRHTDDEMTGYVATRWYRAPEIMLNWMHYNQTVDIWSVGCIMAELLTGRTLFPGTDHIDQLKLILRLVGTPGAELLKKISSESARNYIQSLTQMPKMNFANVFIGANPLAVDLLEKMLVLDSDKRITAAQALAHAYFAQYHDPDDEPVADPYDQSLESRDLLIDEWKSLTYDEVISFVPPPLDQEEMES
Assay: HTS screen with acrylodan-labeled p38α, 384-well secondary screen for Kd
Type: binding
Details: compounds HTS 1-15
What pKd was measured for each of the following?
Give bare numbers, as −log10 of the molar value.

Take a look at these entries with their results.
- compound: "O=C(CN1C(=O)c2cccc3cccc1c23)Nc1cccc(C(F)(F)F)c1"
  targetUnderTest: "p38α (Homo sapiens, UniProt Q16539, A172C/C119S/C162S/F327L)"
  pKd: 5.51
- compound: "NS(=O)(=O)c1ccc(CCNc2nc3c(-c4cccc(C(F)(F)F)c4)nnn3c3ccccc23)cc1"
  targetUnderTest: "p38α (Homo sapiens, UniProt Q16539, A172C/C119S/C162S/F327L)"
  pKd: 6.52
- compound: "CC(=O)Nc1ccc(C(=O)Nc2ccc(-c3nc4cc(NC(=O)c5ccc(NC(C)=O)cc5)ccc4[nH]3)cc2)cc1"
  targetUnderTest: "p38α (Homo sapiens, UniProt Q16539, A172C/C119S/C162S/F327L)"
  pKd: 5.21

Below is a list of compounds. For each, state its recorded pKd.
1. Fc1cccc(COc2ccc(Nc3ncnc4ccccc34)cc2Cl)c1
2. O=C(c1ccc(CSc2nc3ccncc3[nH]2)cc1)N1CCC(Cc2ccccc2)CC1
3. Cc1ccc(C(=O)NCCC23CC4CC(CC(C4)C2)C3)cc1NC1=NC2CS(=O)(=O)CC2S1 (centres unmarked)
4. CCc1ccc(NCc2cc3cc(OC)c(OC)cc3n(CC(=O)Nc3cc(C)ccc3C)c2=O)cc1
5. Brc1cccc(-c2nc3cnccn3c2NC2CCCC2)c1
6. Clc1cccc(-c2nc3cnccn3c2NC2CCCCC2)c1
7. COC(=O)C1=CO[C@@H](C)[C@H]2CN3CCc4c([nH]c5cc(OC)ccc45)[C@H]3C[C@@H]12
8. Cc1ccc(NCc2cc3cc4c(cc3n(CC(=O)Nc3ccccc3F)c2=O)OCCO4)cc1

4.99
5.64
5.89
4.60
4.56
4.00
5.66
4.53

----------
Entries with their measured pIC50, system p38α (Homo sapiens):
Numbers only, as −log10 of the molar value.

For orientation, consider the following solved cases.
- inputSmiles: "COC(=O)C1=CO[C@@H](C)[C@H]2CN3CCc4c([nH]c5cc(OC)ccc45)[C@H]3C[C@@H]12"
  quantitativeReadout: 4.74
- inputSmiles: "CCOC(=O)c1c(C)c(C(=O)N2CCN(Cc3ccccc3)CC2)c(C)n1CC"
  quantitativeReadout: 5.59

Could you share which pIC50 value was measured for `CCc1ccc(NCc2cc3cc(OC)c(OC)cc3n(CC(=O)Nc3cc(C)ccc3C)c2=O)cc1` ?
4.59

----------
Target: p38α (Homo sapiens, UniProt Q16539, A172C/C119S/C162S/F327L)
Construct: His-tag with PreScission site (N, cleaved yes); GST (N); made in house; host or cells: E. coli BL21(DE3)
Test: acrylodan-labeled p38α (ac-p38α) fluorescence binding assay, endpoint Kd measurements
Settings: pyrazolourea derivatives of BIRB-796; 50 nM ac-p38α, cuvettes; read-out: Kd
metricName: pKd
Numbers only, as −log10 of the molar value.

// known answers, use as guide
- molecule: "Cc1ccc(-n2nc(C(C)(C)C)cc2NC(=O)Nc2ccc(Cl)cc2)cc1Cl [12b, RL18]"
  quantitativeReadout: 7.74
- molecule: "Cc1ccccc1-n1nc(C(C)(C)C)cc1NC(=O)Nc1ccc(Cl)cc1 [12D, RL15]"
  quantitativeReadout: 6.46
- molecule: "Cc1ccc(-n2nc(C(C)(C)C)cc2NC(=O)Nc2ccc(Cl)cc2)cc1 [12c, RL17]"
  quantitativeReadout: 7.47

Next item in the queue.
Recorded pKd for Cc1ccc(-n2nc(C(C)(C)C)cc2NC(=O)Nc2cccc3ccccc23)cc1 [14a, RL36] , please?
7.96

----------
Reported IC50 for target or system p38α (Homo sapiens, UniProt Q16539), by entry.

Worked cases, IC50 given:
- inputSmiles: "NS(=O)(=O)c1ccc(CCNc2nc3c(-c4cccc(C(F)(F)F)c4)nnn3c3ccccc23)cc1"
  IC50: "> 50 µM"
- inputSmiles: "Fc1cccc(COc2ccc(Nc3ncnc4ccccc34)cc2Cl)c1"
  IC50: "> 50 µM"

Here is the next item to consider.
Param readout= IC50; system= p38α (Homo sapiens, UniProt Q16539); entry= `O=C(CN1C(=O)c2cccc3cccc1c23)Nc1cccc(C(F)(F)F)c1` ; returns value.
> 50 µM

All figures here come from patent US20110212475A1.
